# System: OVCAR-4 ovarian
# Assay Summary: NCI-60 one-dose screen, 48 h
# Test Conditions: 10 µM unless noted
About 83,000 compounds went through this panel and 20% of them were active in at least one assay; those are over-represented in the sample as a whole. Activity calls are given as the source filed them. How the source made its calls: active means growth percent below 10; inactive means the rest.
Outcomes: active, inactive

Compound | Class Label
CC(=O)N1N=C2N(Cc3ccccc3)C(=O)c3c(sc4c3CCCC4)N2C1c1cn(-c2ccccc2)nc1-c1ccc(Cl)cc1 (stereo not given) | inactive
CN(C)c1ccc(/C=N/N=C(N)N)cc1 | inactive
CCCC(=O)Oc1ccc(/C(=C(\C)c2ccc(Cl)cc2)c2ccc(OCCN(CC)CC)cc2)cc1 | active
C=CCn1c(SCC(=O)Nc2ccc(/C(C)=N\O)cc2)nnc1-c1cc(-c2ccc(OC)cc2)nc2ccccc12 | inactive
Cn1c2ccccc2c2ssc(=S)c21 | inactive
C=CC(C)(O)CCC1C(=C)CCC2C(C)(C)CCCC12C (stereo not given) | inactive
O=C(/C=C/c1ccccc1)Oc1ccc(/C=C/c2cc(OC(=O)/C=C/c3ccccc3)cc(OC(=O)/C=C/c3ccccc3)c2)cc1 | inactive
CCCCCn1ncc(-c2c(O)c(O)cc3c(O)c(-c4c(C)cc5c(-c6cnn(CCCCC)n6)c(O)c(O)cc5c4O)c(C)cc23)n1 | inactive
CCCCCCCCN(CCCCCCCC)CC(O)c1cc(-c2ccccc2)nc2ccc(OC)cc12 (stereo not given) | inactive
NC(N)=N/N=C/c1ccc([N+](=O)[O-])cc1 | inactive
O=S(c1ccccc1)c1ccc2nnnn2n1 (stereo not given) | inactive
CCC1S/C(=N\N=C(/C)c2ccco2)N(c2ccccc2)C1=O (stereo not given) | inactive
COc1cc(/C=C/C(=O)N2CCC=CC2=O)cc(OC)c1OC | inactive
OCc1cnccc1NC12CC3CC(CC(C3)C1)C2 | inactive
O=C(O)c1cccc2oc(-c3ccccc3O)nc12 | inactive
O=C1c2ccccc2OC=C(c2ccccc2)N1CCCCN1CCCCC1 | inactive
COc1cc(/C=C/C(=O)c2ccc(Oc3ncnc4ccccc34)cc2)cc(OC)c1OC | inactive
O=C(Nc1cccc(-n2ccc3c(NC(=O)c4ccccc4)nccc32)c1)Nc1ccc(Cl)c(C(F)(F)F)c1 | inactive
CCCN1C(=O)CSC1=Nc1ccc2cc3ccc(N=C4SCC(=O)N4CCC)cc3nc2c1 | inactive
Cc1ccc(Cn2cc(COc3ccc4c5ccnc(C)c5n(CCCc5ccccc5)c4c3)nn2)cc1 | inactive
CC(C)(CCN=C(N)Nc1ccccn1)c1ccc(C(F)(F)F)cc1 | inactive
COc1ccc(-c2ccc(NC(=O)Nc3cccc(C(F)(F)F)c3)c(C)n2)cc1 | inactive
CCn1c(SCC(=O)c2ccc(Br)cc2)nnc1-c1cc2c([nH]c3ccccc32)c(-c2cccc(O)c2)n1 | inactive
C#CC(=O)/C=C/CCCCCCC#CC(=O)CCC(=O)C#CCCCCCC/C=C/C(=O)C#C | inactive
Nc1ncnc2c1ccn2-c1cccc(NC(=O)c2cccc(C(F)(F)F)c2)c1 | inactive
C=C1c2c(Cl)ccc(O)c2C(O)=C2C(=O)[C@]3(O)C(O)=C(C(N)=O)C(=O)[C@@H](N(C)C)[C@@H]3[C@@H](O)[C@H]12 | inactive
COc1ccc(-c2nn(-c3ccc(NC(=O)c4ccc(Cl)c(C(F)(F)F)c4)cc3)cc2-c2ccncc2)cc1Cl | inactive
FC(F)(F)c1cn(CCN2CCOCC2)c2ncnc(Cl)c12 | inactive
Nc1nc(Cl)c2c(C(F)(F)F)cn(CC3CCNCC3)c2n1 | inactive
Cc1nssc1=S | inactive
